- Assayed System: Serine/threonine-protein kinase D2 (Homo sapiens);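 also: reported percent inhibition values are means, part of the GSK PKIS kinase panel screen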
- Measurement Setup: at 0.1 µM

[
  {
    "Structure String": "[O-][S+]1CCN(Cc2ccc(-c3ccc4ncnc(Nc5ccc(OCc6cccc(F)c6)c(Cl)c5)c4c3)o2)CC1",
    "inhibition": "4.6%"
  },
  {
    "Structure String": "O=C(Nc1n[nH]c2cc(-c3ccc(F)cc3)ccc12)C1CC1",
    "inhibition": "2.7%"
  },
  {
    "Structure String": "NC(=O)c1sc(-n2cnc3ccc(C(F)(F)F)cc32)cc1OCc1ccccc1Br",
    "inhibition": "3.59%"
  },
  {
    "Structure String": "Clc1ccc(-c2nn3ncccc3c2-c2ccnc(Nc3ccccc3)n2)cc1",
    "inhibition": "1.23%"
  }
]

Data provenance is ChEMBL document CHEMBL1961873.
